Assay: HepG2 liver cancer cell viability effects, profiling panel, resazurin fluorescence, 24 h, PK04 Diversity Set (AID 1172); further: test concentration not given here
Details: higher = more signal
Below, each entry is listed alongside its reported z-score.
Answer field: number only, no words.

In: Identify measured z-score corresponding to `CC(C)[Si](C#Cc1ccccc1)(O[C@H](c1ccccc1)c1cn(Cc2ccccc2)nn1)C(C)C`
Out: -0.001

In: Identify measured z-score corresponding to `COC(=O)[C@@]1(Cc2ccccc2)[C@H]2c3cc(C(=O)N(C)C)n(Cc4nc5ccccc5[nH]4)c3C[C@H]2CN1C(=O)c1ccccc1`
Out: 1.17

In: Identify measured z-score corresponding to `COCCOC(=O)N1C(=O)[C@@]2(c3cc(C#CCNC(N)=O)ccc31)[C@H](c1ccc(O)cc1)N1[C@H](c3ccccc3)[C@H](c3ccccc3)OC(=O)[C@H]1[C@@H]2C(=O)N1CCc2cc(OC)c(OC)cc2C1`
Out: -0.328

---

System: Fibrinogen (Alexa647-labelled)
Assay: fibrinogen binders on compound microarrays, profiling panel, artefact control for SMM control-protein annotation, biochemical, small-molecule microarray, 635/667 nm fluorescence (AID 1131);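 further: z-score merges 667 nm fluorescence with per-spot signal-to-noise over triplicate slides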
Conditions: fibrinogen-A647 binding fluorescence, higher = more signal
Below, each entry is listed alongside its reported composite z-score.
Answer field: number only, no words.

Please review the following examples before continuing.
CN1C(=O)C2C=CC(C(O)c3ccc([N+](=O)[O-])cc3)N(Nc3ccccc3)C2C1=O (stereo not drawn)
0.999
CCOC(=O)C1=C[C@@H](C(C)(C)C)N(S(=O)(=O)c2ccc(C)cc2)[C@H]1c1ccc(OC)cc1
1.02

Moving on to another molecule below.
In: Answer with composite z-score of `COc1ccc(CCNC(=O)[C@@]2(C)c3ccccc3C(=O)N(Cc3ccc(OC(F)(F)F)cc3)[C@H]2c2ccc(CO)cc2)cc1` measured for Fibrinogen (Alexa647-labelled).
Out: 0.576

---

Experiment: small-molecule microarray binders of probe aLefty2, primary screen, biochemical, biotinylated probe, 635/667 nm fluorescence (AID 1094);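 further: score merges spot fluorescence near 667 nm with spot signal-to-noise ratio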
Conditions: higher = more signal
// map composite z-score onto a label; ranges low range = under -0.06, mid range = from -0.06 up to 0.02, high range = 0.02 and over

# example entries with known answers
O=C1C[C@@](C(=O)NCC(F)(F)F)(c2ccc([N+](=O)[O-])cc2)[C@@H](c2ccc(CO)cc2I)N1CC12CC3CC(CC(C3)C1)C2
low range
COC(=O)C(CC#Cc1ccc2c(c1)[C@]1(C(=O)N2)[C@H](C(=O)N2CCN(c3ncccn3)CC2)[C@H]2C(=O)O[C@H](c3ccccc3)[C@H](c3ccccc3)N2[C@@H]1c1ccc(O)cc1)C(=O)OC
high range
CCOC(=O)C[C@H]1[C@H](OC(=O)c2cc3ccccc3oc2=O)[C@@H](NC(=O)Cc2ccc(OC)cc2)c2cc(OCCCO)ccc2N1C(=O)Cc1ccc(OC)cc1
mid range

Next compound, please.
In: Could you place COC(=O)c1ccc(OC)c(/C=C\CC(OC(=O)c2ccncc2)c2ccccc2)c1 (stereo not given) in its proper category? Many thanks.
Out: low range

---

Assay: A549 lung cancer cell viability effects, profiling panel, resazurin fluorescence, 24 h, PK04 Diversity Set (AID 1171); further: test concentration not given here
Conditions: higher = more signal, called active from +8 up or from −8 down
Decide by z-score: equal to or exceeding 0.5 means TRUE, less means FALSE.

# example entries with known answers
O=C1NC(=O)C2C1C=CC(C(O)C(c1ccccc1)c1ccccc1)N2Nc1ccccn1 (stereo not drawn)
FALSE
Cc1ccc(S[C@]2(C(=O)NCCN3CCOCC3)CC(=O)N(C(C)C)[C@@H]2c2ccc(CO)cc2I)cc1
FALSE
C=CC[C@H](O)c1ccc(O)c(F)c1
FALSE

In: Could you please find out whether CN1C(=O)C2C=CC(C(O)c3ccc(I)cc3)N(N(c3ccccc3)c3ccccc3)C2C1=O (stereo not drawn) has z-score that meets 0.5 or exceeds it?
Out: FALSE

In: Could you please find out whether COC(=O)C1=CC(c2ccc(CO)cc2)=CC(C2CC2)N(Cc2cc3c(cc2Br)OCO3)C=C1C(=O)OC (stereo not drawn) has z-score that meets 0.5 or exceeds it?
Out: FALSE

In: Could you please find out whether `COCCCNC(=O)[C@@]1(c2ccc([N+](=O)[O-])cc2)CC(=O)N(C2CCCCC2)[C@@H]1c1ccc(CO)cc1I` has z-score that meets 0.5 or exceeds it?
Out: TRUE

---

Test: small-molecule microarray binders of probe aLefty2, primary screen, biochemical, biotinylated probe, 635/667 nm fluorescence (AID 1094);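 further: score merges spot fluorescence near 667 nm with spot signal-to-noise ratio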
Settings: higher = more signal
reported_metric: composite z-score
Answer field: number only, no words.

Please review the following examples before continuing.
C=CCNC(=O)[C@H]1[C@@H]2C(=O)O[C@@H](c3ccccc3)[C@@H](c3ccccc3)N2[C@@H](c2ccc(OCCO)cc2)[C@]12C(=O)N(C(=O)OCCOC)c1ccc(C#CCC(C(=O)OC)C(=O)OC)cc12
0.771
C=CCOC(=O)[C@H]1[C@@H]2C(=O)O[C@@H](c3ccccc3)[C@@H](c3ccccc3)N2[C@@H](c2ccc(OCCOC(=O)[C@@H]3C[C@@H]4C(=O)N[C@@H](Cc5ccccc5)C(=O)N4[C@@H]3c3ccc(O)cc3)cc2)[C@]12C(=O)Nc1ccc(I)cc12
-0.0666
COC(=O)[C@@]1(Cc2ccccc2)[C@H]2c3cc(C(=O)N(C)C)n(Cc4ccc(Cl)c(C(F)(F)F)c4)c3C[C@H]2CN1C(=O)c1ccccc1
0.146
COC(=O)C1=CC(CCCO)=CC(c2ccc(CN3CCCC3)cc2)N(C)C=C1C(=O)OC (centres undefined)
0.0723
CC1CC/C=C\[C@H]2OC34C=CCN(C(C)C)C(=O)[C@H]3N(C(C)CO)C(=O)[C@@H]4C2C(=O)O1 (some centres undefined)
-0.172
C=CCOC(=O)[C@H]1[C@@H]2C(=O)O[C@@H](c3ccccc3)[C@@H](c3ccccc3)N2[C@@H](c2ccc(OCCOC(=O)[C@H]3C[C@H]4C(=O)NCC(=O)N4[C@H]3c3cccc(OCCO)c3)cc2)[C@]12C(=O)Nc1ccc(I)cc12
-0.172
COC(=O)[C@@]1(Cc2ccc(F)cc2)[C@H]2c3cc(C(=O)N4CCCC4)n(CCc4c[nH]c5cc(F)ccc45)c3C[C@H]2CN1C(=O)c1ccccc1
0.605
COC(=O)[C@@]1(Cc2ccc(F)cc2)[C@H]2c3cc(C(=O)N4CCCC4)n(Cc4ccc(C(F)(F)F)nc4)c3C[C@H]2CN1C(=O)c1ccccc1
0.67

In: Identify measured composite z-score corresponding to C=CCC(OC(C)=O)[C@@H]1[C@@H](N(Cc2cccc3ccccc23)C(=O)c2ccc(C)cc2)c2cc(OCCCO)ccc2N1C(=O)Cc1ccc2ccccc2c1 (some centres undefined)
Out: -0.113

---

Assay: anti-His antibody binders, primary screen, artefact control for SMM control protein annotation, biochemical, small-molecule microarray, 635 nm fluorescence (AID 1128);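 further: score merges feature fluorescence with signal-to-noise for each printed compound spot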
Conditions: anti-His Alexa647 antibody binding, higher = more signal
Decide by composite z-score: equal to or exceeding 0.07 means T, less means F.

CCCCC(=C=CC[C@@H](O)c1ccccc1OCCO)C[C@@H](O)c1ccccn1
F
C#CCN(C(=O)OC(C)(C)C)[C@H](CO)c1ccccc1
T

In: Could you please find out whether COC(=O)c1ccc(OC)c(/C=C\CC(OC(=O)c2ccncc2)c2ccccc2)c1 (centres undefined) has composite z-score that meets 0.07 or exceeds it?
Out: T

In: Could you please find out whether `CCOC(=O)C=C1C[C@@H](c2cccc([N+](=O)[O-])c2)O[C@@H](c2cccc([N+](=O)[O-])c2)O1` has composite z-score that meets 0.07 or exceeds it?
Out: T

In: Could you please find out whether `C=C[C@H](OC)[C@@H](O)c1ccc(OC)c(O)c1` has composite z-score that meets 0.07 or exceeds it?
Out: F

In: Could you please find out whether `C=CCOC(=O)[C@H]1[C@@H]2C(=O)O[C@@H](c3ccccc3)[C@@H](c3ccccc3)N2[C@@H](c2ccc(OCCOC(=O)[C@H]3C[C@H]4C(=O)NCC(=O)N4[C@H]3c3cccc(OCCO)c3)cc2)[C@]12C(=O)Nc1ccc(I)cc12` has composite z-score that meets 0.07 or exceeds it?
Out: T

In: Could you please find out whether `COc1cc(Cc2cc3c(c(-c4ccccc4)n2)[Si](C(C)C)(C(C)C)OC3)cc(OC)c1OC` has composite z-score that meets 0.07 or exceeds it?
Out: F

In: Could you please find out whether `COC(=O)[C@]1(Cc2ccccc2N=[N+]=[N-])N=C(c2ccc(OCCCO)cc2)O[C@@H]1c1ccccc1CN=[N+]=[N-]` has composite z-score that meets 0.07 or exceeds it?
Out: T

---

Below, each entry is listed alongside its reported z-score.
Experiment: HepG2 liver cancer cell viability effects, profiling panel, resazurin fluorescence, 24 h, PK04 Diversity Set (AID 1172); further: test concentration not given here
Details: higher = more signal
Answer field: number only, no words.

In: Identify measured z-score corresponding to `C=C(/C=C\CNS(=O)(=O)c1ccc(C)cc1)[C@H](O)[C@H]1CCCN1S(=O)(=O)c1ccccc1[N+](=O)[O-]`
Out: -0.527

In: Identify measured z-score corresponding to `OCCCc1cc[n+](Cc2cc3c(cc2Br)OCO3)cc1`
Out: -0.0125

In: Identify measured z-score corresponding to `CCCC=C(CCC)[C@@H](NC(=O)c1ccc(C(=O)OC)cc1)c1ccc(C(=O)OC)cc1`
Out: -0.179
